Origin of measurements: patent CN114920842A

- ASSAY TARGET: T1, 重组人PLVAP/PV-1蛋白 (human, UniProt Q9BX97 49-442, limits assumed)
- T1 construct: Bought reagent (Abcam); Coupled to a CM5 chip in the SPR assay; also called 质膜膜泡关联蛋白
- T1 sequence (looked up): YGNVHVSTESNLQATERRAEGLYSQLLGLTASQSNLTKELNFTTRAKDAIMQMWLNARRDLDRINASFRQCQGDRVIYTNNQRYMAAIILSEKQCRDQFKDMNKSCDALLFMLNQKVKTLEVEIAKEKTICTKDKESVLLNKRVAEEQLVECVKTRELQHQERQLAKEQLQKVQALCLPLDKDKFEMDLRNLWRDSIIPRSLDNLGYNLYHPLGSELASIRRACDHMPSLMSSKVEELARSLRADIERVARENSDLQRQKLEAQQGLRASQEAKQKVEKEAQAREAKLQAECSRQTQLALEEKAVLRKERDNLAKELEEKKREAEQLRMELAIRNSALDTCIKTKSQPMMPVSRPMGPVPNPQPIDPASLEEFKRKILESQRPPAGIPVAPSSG
- ASSAY TEXT: SPR, Biacore T200, PV-1 coupled to CM5 chip, antibody as analyte, 25℃, 1:1 fit
PROPERTY LABEL: 倍数 (fold against HLPV-P00) (fold)
Report only the number, with the unit fold understood.

# BINDER, MEASUREMENT UNIT, REPORTED
measured = [
    ("HLPV-P11 (antibody, IgG1, V domains shown, Full IgG1/kappa antibody; not shown: human IgG1 heavy chain constant region, UniProtKB P01857.1; human Kappa light chain constant region, UniProtKB P01834.2) VH: QVQLVQSGAEVKKPGASVKVSCKASGYTFTDYYMYWVRQAPGQGLEWIGEINPTQGDVNFNEMFKSRVTMTVDTSTSTAYMELSSLRSEDTAVYYCTTIFYWGQGTLVTVSS VL: DIVMTQSPSSLSASVGDRVTITCKASQDIKYQLSWYQQKPGKAPKTLIYYATDLADGVPSRFSGSGSGQEFTLTISSLQPEDFATYYCVQHDDRPFSFGQGTKLEIK", "fold", 40.5),
    ("HLPV-P07 (antibody, IgG1, V domains shown, Full IgG1/kappa antibody; not shown: human IgG1 heavy chain constant region, UniProtKB P01857.1; human Kappa light chain constant region, UniProtKB P01834.2) VH: QVQLVQSGAEVKKPGASVKVSCKASGYTFEDYYMYWVRQAPGQGLEWIGEINPTQGDVRFNEMFKSRVTMTVDTSTSTAYMELSSLRSEDTAVYYCTSIFYWGQGTLVTVSS VL: DIVMTQSPSSLSASVGDRVTITCKASQDIKYQLSWYQQKPGKAPKTLIYYATYLADGVPSRFSGSGSGQEFTLTISSLQPEDFATYYCVQHDDRPFTFGQGTKLEIK", "fold", 11.4),
]

Lookup result for HLPV-P09 (antibody, IgG1, V domains shown, Full IgG1/kappa antibody; not shown: human IgG1 heavy chain constant region, UniProtKB P01857.1; human Kappa light chain constant region, UniProtKB P01834.2) VH: QVQLVQSGAEVKKPGASVKVSCKASGYTFTDYYMYWVRQAPGQGLEWIGEINPTQGDVNFNEMFKSRVTMTVDTSTSTAYMELSSLRSEDTAVYYCTTIFYWGQGTLVTVSS VL: DIVMTQSPSSLSASVGDRVTITCKASQDIGYQLSWYQQKPGKAPKTLIYYATDLADGVPSRFSGSGSGQEFTLTISSLQPEDFATYYCVQHYDRPFTFGQGTKLEIK ; measured 倍数 (fold against HLPV-P00): 36.8

Lookup result for HLPV-P05 (antibody, IgG1, V domains shown, Full IgG1/kappa antibody; not shown: human IgG1 heavy chain constant region, UniProtKB P01857.1; human Kappa light chain constant region, UniProtKB P01834.2) VH: QVQLVQSGAEVKKPGASVKVSCKASGYTFTDYYMYWVRQAPGQGLEWIGEINPTQGDVNFNEMFKSRVTMTVDTSTSTAYMELSSLRSEDTAVYYCTSIFYWGQGTLVTVSS VL: DIVMTQSPSSLSASVGDRVTITCKASQDIKYQLTWYQQKPGKAPKTLIYYATDLADGVPSRFSGSGSGQEFTLTISSLQPEDFATYYCVQHDNRPFTFGQGTKLEIK ; measured 倍数 (fold against HLPV-P00): 25.8
